Biological target: human mAChR M4 (Homo sapiens)
Construct: expressed in transfected cells; host or cells: CHO-K1 (ATCC), stably co-expressing chimeric G protein Gqi5
Sequence (P08173 whole entry): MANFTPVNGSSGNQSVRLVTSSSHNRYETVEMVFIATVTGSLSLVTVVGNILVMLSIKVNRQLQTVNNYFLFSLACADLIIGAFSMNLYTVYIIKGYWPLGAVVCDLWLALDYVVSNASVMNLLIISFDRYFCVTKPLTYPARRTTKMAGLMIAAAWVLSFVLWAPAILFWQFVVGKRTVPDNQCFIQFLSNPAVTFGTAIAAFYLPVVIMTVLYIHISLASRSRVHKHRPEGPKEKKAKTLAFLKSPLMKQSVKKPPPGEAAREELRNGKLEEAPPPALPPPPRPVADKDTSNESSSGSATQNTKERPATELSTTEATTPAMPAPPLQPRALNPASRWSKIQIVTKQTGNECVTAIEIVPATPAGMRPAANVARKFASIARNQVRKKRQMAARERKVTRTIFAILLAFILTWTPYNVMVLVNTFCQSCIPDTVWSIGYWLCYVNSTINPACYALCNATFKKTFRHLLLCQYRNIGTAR
Assay: mAChR M4 cell-based functional assay (calcium mobilization, EC80 acetylcholine), human M4
Details: Table 9; M4/Gqi5/CHO-K1 cells, decrease of EC80 acetylcholine response
Description: Human or rat M4 cDNA, along with the chimeric G protein Gqi5, were transfected into Chinese hamster ovary (CHO-K1) cells purchased from the American Type Culture Collection using Lipofectamine2000. […] Calcium flux was measured using the Functional Drug Screening System (FDSS) 6000 or 7000 (Hamamatsu Corporation, Tokyo, Japan) as an increase in the fluorescent static ratio. […] Agonist activity was analyzed as a concentration-dependent increase in calcium mobilization upon compound addition. […]
Would you mind telling me the reported log10(IC50) of each entry?
Kindly note that the scale is log10 and the underlying IC50 is in µM.

Task: // fetch log10(IC50) given entry O=C(Nc1ccc(-c2ccc(F)cc2Cl)nn1)C1C[C@@H]2CN(CC3CC4C=CC3C4)C[C@@H]2C1 (stereo partly shown)
Result: 0.44

Task: Provide log10(IC50) value for the following compound: CCCC(C)CN1C[C@H]2CC(COc3ccc(-c4cn(C)nc4C)nn3)C[C@H]2C1 (stereo partly shown)
Result: -0.52

Task: Please list log10(IC50) recorded for the compound Cc1cnn(C)c1-c1ccc(N[C@H]2C[C@@H]3CN(CC45CC6CC(CC(C6)C4)C5)C[C@@H]3C2)nn1
Result: -1.59

Task: Answer with the recorded log10(IC50) for the compound listed here: Cc1cccnc1CN1C[C@H]2C[C@H](Nc3ccc(-c4c(C)cnn4C)nn3)C[C@H]2C1
Result: -1.42

Task: Note down log10(IC50) recorded for CCC(C)CN1C[C@H]2CC(COc3ccc(-c4cn(C)nc4C)nn3)C[C@H]2C1 (stereo partly shown)
Result: -0.18

Task: In one line, give reported log10(IC50) of the entry Cc1nn(C)cc1-c1ccc(O[C@@H]2C[C@@H]3CN(CC4CCCOC4)C[C@@H]3C2)nn1 (stereo partly shown) .
Result: 0.89

Task: Answer with reported log10(IC50) of Fc1ccc(Cl)c(-c2ccc(OCC3C[C@@H]4CN(CC5CC6C=CC5C6)C[C@@H]4C3)nn2)c1 (stereo partly shown)
Result: -0.87

These measurements were taken from patent US12577234B2.
